Test: PK and BD of DTG during pregnancy
Type: in vivo, mouse
Details: C3H/HeJ, mouse, embryo brain / dam plasma, oral, 50 mg/kg; GD 16.5
Text: Drug administration was started at the day of plug detection (GD 0.5) and continued up to the day of birth of pups. […] Each sample (plasma or tissue) evaluated for DTG levels was randomly selected from distinct litters. […] DTG levels were quantitated in plasma, and tissue homogenates by ultraperformance liquid chromatography tandem mass spectrometry (UPLC-MS/MS). […]
ASSAY READOUT: Kp
Form: value (number only, do not type unit).

Kp reading for C[C@@H]1CCO[C@H]2Cn3cc(C(=O)NCc4ccc(F)cc4F)c(=O)c(O)c3C(=O)N12 [DTG, Dolutegravir] : 0.024

====

Molecular target: MMP-14 (Homo sapiens)
Experiment: Fluorometric substrate assay (MMP inhibitor profiling kit)
Details: human recombinant MMP-14, 60 min preincubation, four-parameter fit
Method: Kit contained a panel of ten MMPs and a quenched fluorogenic substrate OMNIMMP® RED. […] The plate was continuously read at Ex/Em = 545/576 nm (cutoff at 570 nm) for 30 min with 1-min time intervals at constant temperature, 37 °C, using Molecular Devices SpectraMax M3 plate reader with SoftMax Pro 6.2 software.
ASSAY READOUT: IC50 (µM)
Provide the reading as a plain figure in µM.

The reported value for C[C@@H]1CCO[C@H]2Cn3cc(C(=O)NCc4ccc(F)cc4F)c(=O)c(O)c3C(=O)N12 in terms of IC50 is 10.5

====

Molecular target: MMP-1 (Homo sapiens)
Sequence (P03956 100-469): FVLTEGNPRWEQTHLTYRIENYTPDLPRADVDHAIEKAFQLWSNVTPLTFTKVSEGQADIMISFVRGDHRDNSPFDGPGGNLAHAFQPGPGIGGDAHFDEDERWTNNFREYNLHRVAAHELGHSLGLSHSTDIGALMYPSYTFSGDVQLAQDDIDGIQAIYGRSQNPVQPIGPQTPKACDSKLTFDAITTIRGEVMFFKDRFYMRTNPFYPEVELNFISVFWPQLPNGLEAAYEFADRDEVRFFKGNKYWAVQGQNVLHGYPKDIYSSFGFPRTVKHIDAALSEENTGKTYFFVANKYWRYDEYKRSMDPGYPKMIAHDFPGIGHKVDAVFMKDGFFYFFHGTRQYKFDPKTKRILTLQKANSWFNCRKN
Assay: Fluorometric substrate assay (MMP inhibitor profiling kit)
Settings: human recombinant MMP-1, 60 min preincubation, four-parameter fit
ASSAY READOUT: IC50
Hi, when you answer, please include the unit after the number. Thanks!

compound C[C@@H]1CCO[C@H]2Cn3cc(C(=O)NCc4ccc(F)cc4F)c(=O)c(O)c3C(=O)N12 [DTG, Dolutegravir] , IC50 observed: 83.9 µM

====

Test: PK and BD of DTG during pregnancy
Type: in vivo, mouse
Conditions: C3H/HeJ, mouse, pup brain / dam plasma, oral, 50 mg/kg; PND 4
ASSAY READOUT: Kp
Answer with the value's number alone.

Per the record, C[C@@H]1CCO[C@H]2Cn3cc(C(=O)NCc4ccc(F)cc4F)c(=O)c(O)c3C(=O)N12 [DTG, Dolutegravir] has Kp of 0.038

====

Biological target: MMP-7 (Homo sapiens, UniProt P09237)
Sequence (P09237 95-267): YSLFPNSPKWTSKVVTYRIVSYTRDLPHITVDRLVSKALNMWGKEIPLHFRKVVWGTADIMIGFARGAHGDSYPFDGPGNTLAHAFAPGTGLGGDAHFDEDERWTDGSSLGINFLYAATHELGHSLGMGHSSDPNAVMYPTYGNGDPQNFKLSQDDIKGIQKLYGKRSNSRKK
Test: Fluorometric substrate assay (MMP inhibitor profiling kit)
Details: human recombinant MMP-7, 60 min preincubation, four-parameter fit
ASSAY READOUT: pIC50
Answer as the number alone; pIC50 is minus log10 of concentration in mol/L.

// pIC50 value for C[C@@H]1CCO[C@H]2Cn3cc(C(=O)NCc4ccc(F)cc4F)c(=O)c(O)c3C(=O)N12 [DTG, Dolutegravir] : 3.51

====

Assay: Embryo phenotype assessments
Type: in vivo, mouse
Details: female, C3H/HeJ, mouse, in vivo, oral; GD 16.5, 50 mg/kg/day; read-out: Total viable embryos (%)
ASSAY READOUT: viability (%)
Answer format: numeric, % implied, no suffix.

Entry C[C@@H]1CCO[C@H]2Cn3cc(C(=O)NCc4ccc(F)cc4F)c(=O)c(O)c3C(=O)N12 — recorded viability = 79.2
